Tested on: RPMI-8226 leukemia
Assay: NCI-60 one-dose screen, 48 h
Details: 10 µM unless noted
Experimental: Growth inhibition of the RPMI-8226 human tumor cell line is measured as a screen for anti-cancer activity. Cells are grown in 96 well plates and exposed to the test compound for 48 hours. Compounds are tested at a single concentration, which is 10^-5 M for most compounds. The reported endpoint is percent growth (GI% or GIPRCNT), where numbers from 0 - 100% represent growth inhibition, and numbers from -100% - 0 represent cell death. For example, a value of 40 represents 60% growth inhibition. […]
The panel holds about 83,000 compounds, 20% with a hit somewhere; the sample as a whole holds those more often. Activity calls are given as the source filed them. Rule for the calls: active = growth percent below 10; inactive = the rest.
Response enum: yes (active), no (inactive)

State the result this test recorded for `CCN(CC)c1cc(C)c2cc(NC(=O)c3cccc(OC)c3)ccc2n1` .
yes

State the result this test recorded for `Cc1ccc(OCCCCCCNCCO)c(C)c1` .
yes

State the result this test recorded for `NCCNc1nc2ccccc2c2c(=O)c3cc(F)cc(Cl)c3sc12` .
yes

State the result this test recorded for CC1=NCC2NC(=O)NC(C)=C12 (stereo unspecified) .
no

State the result this test recorded for `CCOc1cccc(/C=N\Nc2nc(=O)cc(C(=O)OC)s2)c1O` .
no

State the result this test recorded for `COC(=O)/C(CCC=C(C)C)=C1\[C@@H](OC(C)=O)C[C@@]2(C)[C@H]1C[C@@H](O)[C@H]1[C@@]3(C)CC[C@H](NCCCNCCCCNCCCN)[C@@H](C)[C@@H]3CC[C@@]12C` .
no

State the result this test recorded for `Clc1ccc(COc2ccc(Nc3ncnc4onc(-c5ccccc5)c34)cc2)cc1` .
no

State the result this test recorded for CCCCC1COc2cccc3c2N1C=C/C3=C\C(=O)N(C)c1ccccc1 (stereo unspecified) .
yes

State the result this test recorded for COc1ccc(-n2c(C(O)c3ccccc3)n[nH]c2=S)cc1 (stereo unspecified) .
no

State the result this test recorded for `Cn1nc(C(F)(F)F)c(-c2ccc(Cl)c(C(F)(F)F)c2)c1-c1ccc(OCc2ccc(Cl)cc2)cc1O` .
yes

State the result this test recorded for `CC(=O)O[C@@H]1/C=C/C(=O)N[C@@H](C)CCC/C=C/[C@@H]2CCC[C@H]21` .
no

State the result this test recorded for `Cc1nc(Nc2cn[nH]c2C(=O)Nc2ccc(CN3CCN(C)CC3)cc2)c2ccsc2n1` .
no

State the result this test recorded for `CCCCCCc1cc2cc(-c3csc(/C=C/c4ccccc4)n3)c(=O)oc2cc1O` .
yes

State the result this test recorded for `COc1ccc(C)c2sc(N(Cc3cccnc3)C(=O)c3ccc(C#N)cc3)nc12` .
yes

State the result this test recorded for `O=C(NC(=S)Nc1cccc(NC(=S)NC(=O)c2ccccc2)c1)c1ccccc1` .
no

State the result this test recorded for `Nc1no[n+]([O-])c1-c1nnc2c(n1)-c1ccccc1C2=O` .
no

State the result this test recorded for `N#CC(C#N)=Cc1c(-c2ccccc2)[nH]c2ccccc12` .
yes

State the result this test recorded for `FC(F)(F)c1cccc(Nc2nc3ccccc3nc2Nc2cccc(C(F)(F)F)c2)c1` .
yes

State the result this test recorded for `Cc1ccc2cccc(Oc3ccc(Nc4ncnc5onc(-c6ccccc6)c45)cc3)c2n1` .
no

State the result this test recorded for `Oc1[nH]c2ccccc2c1N=Nc1nnc2n1N=C(c1ccccc1)CS2` .
no

State the result this test recorded for `Cc1ccc2cc3c(N)c4c(C)ccc(C)c4nc3nc2c1` .
no
